Consider the following molecules; for each one, report its Ki.
system under test: Human α4β2 (Homo sapiens, UniProt P17787+P43681)
Construct: host or cells: SH-EP1
measurement notes: Competition binding to human α4β2 receptors in membranes of SH-EP1/human α4β2 cells ([3H]-nicotine)
condition parameters: membrane competition binding, read-out: Human α4β2 Ki
Numbers only, in nM.

molecule: COCCC(=O)N1C2CNCC1C2
system under test: Human α4β2 (Homo sapiens, UniProt P17787+P43681)
unit tag: nM
Ki: 370
--
molecule: O=C(C1CC=CCC1)N1C2CNCC1C2 (stereo not shown)
system under test: Human α4β2 (Homo sapiens, UniProt P17787+P43681)
unit tag: nM
Ki: 1200

Look up Ki for the entries below, preserving their order.
1. O=C([C@@H]1C[C@@H]2C=C[C@H]1C2)N1CC2CC(C1)N2
2. O=C(C1Cc2ccccc2C1)N1C2CNCC1C2

**A:**
1. 160
2. 3000

Look up Ki for the entries below, preserving their order.
1. O=C(CC1CCOC1)N1CC2CC(C1)N2 (stereo not shown)
2. O=C(C1CNC1)N1CC2CC(C1)N2
3. O=C(CC1CCOCC1)N1CC2CC(C1)N2
4. O=C(COCc1ccccc1)N1CC2CC(C1)N2
5. COCCOC(=O)N1CC2CC(C1)N2
6. Cc1ncoc1C(=O)N1C2CNCC1C2
7. O=C([C@@H]1C[C@H]1F)N1CC2CC(C1)N2

**A:**
[240, 430, 2800, 1000, 120, 140, 1]

Look up Ki for the entries below, preserving their order.
1. O=C(CC1CCCC1)N1CC2CC(C1)N2
2. CC1(C)CC(C(=O)N2C3CNCC2C3)C1
3. Cc1nocc1C(=O)N1C2CNCC1C2
4. CCC[C@H]1C[C@H]1C(=O)N1C2CNCC1C2
5. O=C(c1cc(Cl)cc(Cl)c1)N1C2CNCC1C2
6. C[C@@H]1C(C(=O)N2C3CNCC2C3)[C@@H]1C (stereo partly shown)

**A:**
1. 440
2. 760
3. 1100
4. 570
5. 1200
6. 610

Look up Ki for the entries below, preserving their order.
1. CC1(C)C(C(=O)N2CC3CC(C2)N3)C1(C)C
2. O=C(CC1CCOCC1)N1C2CNCC1C2

**A:**
1. 140
2. 3300

====

Consider the following compounds; for each one, report its pKi.
system under test: Human α4β2 (Homo sapiens, UniProt P17787+P43681)
Construct: host or cells: SH-EP1
measurement notes: Competition binding to human α4β2 receptors in membranes of SH-EP1/human α4β2 cells ([3H]-nicotine)
condition parameters: Human α4β2 Ki, membrane competition binding
Give bare numbers, as −log10 of the molar value.

Previously resolved entries follow.
compound: O=C(C1CC1(F)F)N1CC2CC(C1)N2 (centres unmarked)
pKi: 8.21
--
compound: O=C([C@H]1C[C@@H]1F)N1CC2CC(C1)N2 [drawing 165]
pKi: 8.34
--
compound: CC1(C)CC1C(=O)N1CC2CC(C1)N2 (centres unmarked)
pKi: 8.28
--
compound: O=C(C1CCCC1)N1CC2CC(C1)N2
pKi: 6.77
--
compound: C/C=C/CCC(=O)N1CC2CC(C1)N2
pKi: 7.43

Look up pKi for the entries below, preserving their order.
1. CCC1(CC)CC1C(=O)N1CC2CC(C1)N2 (centres unmarked)
2. O=C(c1cnco1)N1CC2CC(C1)N2
3. O=C([C@H]1C[C@H]1F)N1C2CNCC1C2
4. O=C(C1CC(F)(F)C1)N1C2CNCC1C2

**A:**
[7.15, 7.55, 8.43, 7.27]

Look up pKi for the entries below, preserving their order.
1. O=C([C@@H]1C[C@H]1c1ccccc1)N1C2CNCC1C2
2. O=C(NCc1ccc(Cl)c(Cl)c1)N1CC2CC(C1)N2

**A:**
[7.52, 7.05]

Look up pKi for the entries below, preserving their order.
1. CCC[C@H]1C[C@H]1C(=O)N1CC2CC(C1)N2
2. O=C(C1CC12CCC2)N1C2CNCC1C2 (centres unmarked)
3. O=C(CSc1ccc(Cl)c(Cl)c1)N1CC2CC(C1)N2
4. CC(C)C(=O)N1CC2CC(C1)N2

**A:**
1: 7.36; 2: 7.42; 3: 8.64; 4: 6.66

Look up pKi for the entries below, preserving their order.
1. O=C(C1CC2CCC1C2)N1CC2CC(C1)N2 (centres unmarked)
2. O=C(C1CC12CCC2)N1CC2CC(C1)N2 (centres unmarked)
3. CC1CC(C(=O)N2CC3CC(C2)N3)C1 (centres unmarked)
4. O=C([C@H]1C[C@@H]1F)N1CC2CC(C1)N2 [drawing 111]

**A:**
[7.22, 8.59, 7.64, 8.35]

Look up pKi for the entries below, preserving their order.
1. O=C(C1CC(F)(F)C1)N1CC2CC(C1)N2
2. O=C(c1cc(Br)co1)N1CC2CC(C1)N2
3. O=C(CC1C=CCC1)N1CC2CC(C1)N2 (centres unmarked)
4. CC1CC1C(=O)N1CC2CC(C1)N2 (centres unmarked)

**A:**
7.80
7.46
7.96
8.30

Look up pKi for the entries below, preserving their order.
1. C[C@H]1C[C@H]1C(=O)N1CC2CC(C1)N2
2. O=C([C@@H]1C[C@@H]1F)N1CC2CC(C1)N2
3. O=C(CC1CC1)N1CC2CC(C1)N2

**A:**
1: 8.74; 2: 8.74; 3: 7.19

====

system under test: Human α4β2 (Homo sapiens, UniProt P17787+P43681)
Construct: host or cells: SH-EP1
measurement notes: Competition binding to human α4β2 receptors in membranes of SH-EP1/human α4β2 cells ([3H]-nicotine)
condition parameters: membrane competition binding, read-out: Human α4β2 Ki
endpoint label: pKi
One number for each entry, as −log10 of the molar value.

compound: O=C(C1Cc2ccccc21)N1C2CNCC1C2 (stereo not drawn)
pKi: 5.03
--
compound: O=C(c1cnc(Cl)c(Cl)c1)N1CC2CC(C1)N2
pKi: 5.82
--
compound: O=C(C1CCCC1)N1C2CNCC1C2
pKi: 6.38
--
compound: O=C(C1CC2CCC1C2)N1C2CNCC1C2 (stereo not drawn)
pKi: 5.77

Look up pKi for the entries below, preserving their order.
1. O=C(NCc1ccc(Cl)cc1)N1C2CNCC1C2
2. Cn1c(C(=O)N2CC3CC(C2)N3)cc2ccccc21
3. CC(=O)NCCC(=O)N1CC2CC(C1)N2
4. O=C(C1CC=CCC1)N1CC2CC(C1)N2 (stereo not drawn)
5. O=C(Cc1c[nH]c2ccccc12)N1CC2CC(C1)N2
6. CC(C)C(=O)N1C2CNCC1C2
7. O=C(CC1C=CCC1)N1C2CNCC1C2 (stereo not drawn)

**A:**
1. 5.19
2. 6.38
3. 5.47
4. 6.92
5. 6.12
6. 6.59
7. 6.82

Look up pKi for the entries below, preserving their order.
1. O=C(C1CCOCC1)N1C2CNCC1C2
2. O=C([C@@H]1CCCO1)N1C2CNCC1C2
3. O=C(C1CC12CCCC2)N1C2CNCC1C2 (stereo not drawn)

**A:**
1: 5.70; 2: 6.12; 3: 6.55

Look up pKi for the entries below, preserving their order.
1. CC1(C)C(C(=O)N2C3CNCC2C3)C1(C)C
2. O=C(COc1ccc(F)cc1)N1C2CNCC1C2
3. O=C(COc1ccc(F)cc1)N1CC2CC(C1)N2
4. O=C([C@@H]1CCCO1)N1CC2CC(C1)N2
5. O=C(NCc1ccc(Cl)cc1)N1CC2CC(C1)N2
6. O=C(c1ccnc(Cl)c1)N1CC2CC(C1)N2

**A:**
4.96
5.89
6.44
6.43
6.96
6.35

====

system under test: Human α4β2 (Homo sapiens, UniProt P17787+P43681)
Construct: host or cells: SH-EP1
measurement notes: Competition binding to human α4β2 receptors in membranes of SH-EP1/human α4β2 cells ([3H]-nicotine)
condition parameters: membrane competition binding, read-out: Human α4β2 Ki
pKi: −log10 of the molar value.
Answer FALSE if pKi is under 6, and TRUE if it is 6 or more.

**Q:** Please indicate if the recorded pKi for CCC(C)C(=O)N1C2CNCC1C2 (stereo not shown) meets or exceeds 6.
**A:** TRUE

**Q:** Please indicate if the recorded pKi for O=C(C1Cc2ccccc21)N1CC2CC(C1)N2 (stereo not shown) meets or exceeds 6.
**A:** FALSE

**Q:** Please indicate if the recorded pKi for `C[C@@H]1C[C@@H]1C(=O)N1CC2CC(C1)N2` meets or exceeds 6.
**A:** TRUE

====

system under test: Human α4β2 (Homo sapiens, UniProt P17787+P43681)
Construct: host or cells: SH-EP1
measurement notes: Competition binding to human α4β2 receptors in membranes of SH-EP1/human α4β2 cells ([3H]-nicotine)
condition parameters: membrane competition binding, read-out: Human α4β2 Ki
endpoint label: pKi
Give bare numbers, as −log10 of the molar value.

Previously resolved entries follow.
compound: O=C(C1CC1)N1CC2CC(C1)N2
pKi: 8.52
//
compound: O=C(C1C2C3CCC(C3)C12)N1CC2CC(C1)N2 (stereo not shown)
pKi: 5.89
//
compound: O=C(CC1CCCC1)N1C2CNCC1C2
pKi: 6.66

Next compound, pKi to be filled in.
Lookup result for `O=C([C@H]1CCCO1)N1CC2CC(C1)N2` ; measured pKi: 6.40
